- assay: NCI Yeast Anticancer Drug Screen. Data for the mlh1 rad18 strain (AID 175)
- experimentalParameters: S. cerevisiae mlh1 rad18 strain growth inhibition; at 50.0 µM; active compounds read high
Compounds without any hit were thinned out: in the full panel of roughly 79,000, 15% have a hit.
Tick Met if growth inhibition is 30% or greater. Tick Not met if growth inhibition is less than 30%.

[
  {
    "compound": "CC1(C(=O)O)C2[Se]c3cc[se]c3C2C1(C)C(=O)O (centres undefined)",
    "labelValue": "Not met"
  },
  {
    "compound": "N[C@H](Cc1ccc2oc3cc(=O)c4ccccc4c-3nc2c1)C(=O)O",
    "labelValue": "Met"
  },
  {
    "compound": "N.O=S(=O)(O)O.[Al]",
    "labelValue": "Not met"
  },
  {
    "compound": "[Se]=P(N1CCCCC1)(N1CCCCC1)N1CCCCC1",
    "labelValue": "Not met"
  },
  {
    "compound": "CC(C)(O)C1=CC23CC(C)(C(=O)O)C4CCCCC4(C)C2CC1OO3 (centres undefined)",
    "labelValue": "Not met"
  },
  {
    "compound": "CN1CCOC12CCC1(C)C(CCC3C4CCC(O)C4(C)CCC31)C2 (centres undefined)",
    "labelValue": "Met"
  },
  {
    "compound": "[Se]C1=NCCN1",
    "labelValue": "Met"
  },
  {
    "compound": "[Cl][Cd][Cl]",
    "labelValue": "Not met"
  },
  {
    "compound": "COC1C(O)C(C)OC(O[C@@H]2C[C@H]3CC[C@@H]4[C@H](CC[C@]5(C)[C@@H](C6=CC(=O)OC6)CC[C@]45O)[C@@]3(C)[C@H](O)C2)C1O (some centres undefined)",
    "labelValue": "Not met"
  }
]

====

- assay: NCI Yeast Anticancer Drug Screen. Data for the mec2-1 strain (AID 157)
- experimentalParameters: S. cerevisiae mec2-1 strain, at 50.0 µM
Compounds without any hit were thinned out: in the full panel of roughly 79,000, 15% have a hit. Calls of active or inactive are those of the source. Cut-off read from the data, not from the text of the source: active = growth inhibition above about 70%; inactive = the rest.
Possible outcomes: Yes for active, No for inactive

[
  {
    "querySmiles": "C#CC(O)(CC)CC",
    "labelValue": "No"
  },
  {
    "querySmiles": "CC1(C)CN1C1=C(Br)C(=O)C(N2CC2(C)C)=C(Br)C1=O",
    "labelValue": "No"
  },
  {
    "querySmiles": "C[C@]12CC[C@H]3[C@@H](CCC4=CC(=O)CC[C@@H]43)[C@@H]1CC[C@@H]2OC(=O)N(CCCl)N=O",
    "labelValue": "Yes"
  },
  {
    "querySmiles": "CC[PH+](CC)CC[S-].CC[PH+](CC)CC[S-].[Au+].[Au+]",
    "labelValue": "No"
  }
]

====

growth inhibition by entry:
- assay: NCI Yeast Anticancer Drug Screen. Data for the mec2-1 strain (AID 157)
- experimentalParameters: S. cerevisiae mec2-1 strain, at 50.0 µM, active compounds read high
This is part of a sample that, as a whole, favours compounds with a hit. Of some 79,000 tested, about 15% had one in any assay.
observedProperty: growth inhibition (%)

[
  {
    "compound": "CN(C)CCNC(=O)c1cccc(COC(=O)Nc2ccc(N(CCCl)CCCl)cc2)c1[N+](=O)[O-]",
    "unitString": "%",
    "quantitativeResult": -15.8
  },
  {
    "compound": "CCOP(=O)(OCC)C1CCC(=O)O1 (stereo not drawn)",
    "unitString": "%",
    "quantitativeResult": -20.2
  },
  {
    "compound": "O=C(OCC(CCl)OC(=O)C(Cl)(Cl)Cl)C(Cl)(Cl)Cl (stereo not drawn)",
    "unitString": "%",
    "quantitativeResult": 46.4
  }
]

====

- assay: NCI Yeast Anticancer Drug Screen. Data for the mec2-1 strain (AID 157)
- experimentalParameters: S. cerevisiae mec2-1 strain, at 50.0 µM
Compounds without any hit were thinned out: in the full panel of roughly 79,000, 15% have a hit. Active and inactive are the calls of the source. No stated cut-off is given here; in the data, active means growth inhibition above about 70%; inactive means the rest.
Possible outcomes: YES (active), NO (inactive)

[
  {
    "molecule": "COc1ccc(N=NC(=O)NC(CC(C)C)C(=O)NCC(=O)O)cc1 (centres undefined)",
    "labelValue": "NO"
  },
  {
    "molecule": "CN(C=O)NC(=O)N(CCCl)N=O",
    "labelValue": "NO"
  },
  {
    "molecule": "COC(=O)CNP(=O)(NCC(=O)OC)N(CCCl)CCCl",
    "labelValue": "NO"
  },
  {
    "molecule": "CCOC(OC1=C(C#N)CCCC1)C(CC)[Se]c1ccccc1 (centres undefined)",
    "labelValue": "NO"
  },
  {
    "molecule": "CC(=O)[CH-]C(C)=O.CC(=O)[CH-]C(C)=O.[O-]c1ccccc1.[O-]c1ccccc1.[Ti+4]",
    "labelValue": "NO"
  },
  {
    "molecule": "Cc1ccc(C(=O)C2C(c3ccccc3)N2Cc2ccccc2)cc1 (centres undefined)",
    "labelValue": "NO"
  },
  {
    "molecule": "CCCCNCCc1cccnc1",
    "labelValue": "NO"
  },
  {
    "molecule": "Cc1cc(C)cc(C(O)(C(=O)O)c2ccccc2)c1 (centres undefined)",
    "labelValue": "NO"
  },
  {
    "molecule": "CCOC(=O)C1C(=O)C(=O)N2CCc3c([nH]c4ccccc34)C12 (centres undefined)",
    "labelValue": "NO"
  },
  {
    "molecule": "CCOP(=O)(OCC)C(C)(C)OC(=O)NC(F)(F)F",
    "labelValue": "NO"
  },
  {
    "molecule": "O=C([CH-]C(=O)c1ccccc1)c1ccccc1.O=C([CH-]C(=O)c1ccccc1)c1ccccc1.[Nd+3].[OH-].[OH3+]",
    "labelValue": "YES"
  },
  {
    "molecule": "C(#CCN1CCCCCC1)CN1CCCCCC1",
    "labelValue": "NO"
  },
  {
    "molecule": "O=N[O-].O=N[O-].[Co].[NH2-].[NH2-].[NH2-].[NH2-]",
    "labelValue": "NO"
  },
  {
    "molecule": "CN(CCOC(=O)c1ccc(Br)cc1)[N+](=O)[O-]",
    "labelValue": "NO"
  },
  {
    "molecule": "CNP1(NC)=NP(N(C)C)(N(C)C)=NP(N(C)C)(N(C)C)=N1",
    "labelValue": "NO"
  },
  {
    "molecule": "O=Cc1ccccc1O.O=Cc1ccccc1O.[O]=[Mo]=[O]",
    "labelValue": "NO"
  },
  {
    "molecule": "CN1C(=O)NC(C)(c2cccc(N(CCCl)CCCl)c2)C1=O (centres undefined)",
    "labelValue": "NO"
  },
  {
    "molecule": "CCNC(Cc1ccccc1)C1CCCO1 (centres undefined)",
    "labelValue": "NO"
  },
  {
    "molecule": "O=C([O-])C(F)(F)C(F)(F)F.[C-]#[O+].[C-]#[O+].[C-]#[O+].[C-]#[O+].[C-]#[O+].[Re]",
    "labelValue": "YES"
  },
  {
    "molecule": "CCC1(C(C)C)C(=O)NC(=S)N(C)C1=O (centres undefined)",
    "labelValue": "NO"
  },
  {
    "molecule": "N#CC(C#N)=Cc1ccccc1F",
    "labelValue": "NO"
  },
  {
    "molecule": "COc1ccccc1CC(C)NC(C)Cc1ccccc1OC (centres undefined)",
    "labelValue": "NO"
  },
  {
    "molecule": "Cc1ccc2nc(NC(=O)C(=O)C3C(=O)NC(=S)NC3=O)sc2c1",
    "labelValue": "NO"
  },
  {
    "molecule": "N#CSCC(=O)O (tested in a mixture with another compound)",
    "labelValue": "NO"
  },
  {
    "molecule": "NNc1c(C(N)=O)c2c(N)ncnc2n1C1OC(CO)C(O)C1O (centres undefined)",
    "labelValue": "NO"
  },
  {
    "molecule": "O=C(O)c1ccccc1O.[Cu]",
    "labelValue": "NO"
  },
  {
    "molecule": "Cn1c(O)c(C=N)c(=O)n(C)c1=O",
    "labelValue": "NO"
  },
  {
    "molecule": "CC(Cc1ccccc1)NC(=O)/C=C/C(=O)O (centres undefined)",
    "labelValue": "NO"
  },
  {
    "molecule": "Cc1ccc(S(=O)(=O)/N=[Se](\\C)c2ccccc2)cc1 (centres undefined)",
    "labelValue": "NO"
  }
]

meta.source: PubChem BioAssay (NCI)
